procedure-text: Plasma stability assay in human plasma
Format: in vitro ADME
measurement-setup: 10 μM prodrug, 37° C., prodrug remaining at 30 min compared to 0 min
Strictly below 70% in Percent Remaining (%) H: Y. Otherwise: N.

Consider the worked cases shown below.
• CNc1cc(F)c(F)c2c1[nH]c1ncc(-c3ccc4ccc(C(=O)OC(C)OC(=O)OC(C)C)c(=O)n4c3)c(N3CC[C@H]4CN(C)C[C@H]43)c12 (some centres unmarked) = N
• CN1C[C@@H]2CCN(c3c(-c4cnc5c(c4)c(=O)c(C(=O)O)cn5C)cnc4[nH]c5c(N(C)C(=O)OCOC(=O)/C=C/C(=O)O)cc(F)c(C#N)c5c34)[C@@H]2C1 = N
• CNc1cc(F)c(C#N)c2c1[nH]c1ncc(-c3cnc4c(c3)c(=O)c(C(=O)OCc3oc(=O)oc3C)cn4C)c(N3CC[C@H]4CN(C)C[C@H]43)c12 = Y
• CN1C[C@H]2CCN(c3c(-c4cnc5c(c4)c(=O)c(C(=O)O)cn5C)cnc4[nH]c5c(N(C)C(=O)OCOC(=O)/C=C/C(=O)O)cc(F)c(F)c5c34)[C@H]2C1 = N
• CN1C[C@H]2CCN(c3c(-c4cnc5c(c4)c(=O)c(C(=O)O)cn5C)cnc4[nH]c5c(N(C)C(=O)OCOP(=O)(O)O)cc(F)c(F)c5c34)[C@H]2C1 = Y
• CC(=O)OC(C)OC(=O)N(C)c1cc(F)c(C#N)c2c1[nH]c1ncc(-c3cnc4c(c3)c(=O)c(C(=O)O)cn4C)c(N3CC[C@H]4CN(C)C[C@H]43)c12 (some centres unmarked) = Y

stdin: Is it true that Percent Remaining (%) H reported for CNc1cc(F)c(C#N)c2c3c(N4CC[C@H]5CN(C)C[C@H]54)c(-c4cnc5c(c4)c(=O)c(C(=O)O)cn5C)cn(COP(=O)(O)O)c-3nc12 is less than 70%?
stdout: N

stdin: Further, for CNc1cc(F)c(C#N)c2c1[nH]c1ncc(-c3cnc4c(c3)c(=O)c(C(=O)OCCOC(=O)[C@@H](N)C(C)C)cn4C)c(N3CC[C@H]4CN(C)C[C@H]43)c12 ?
stdout: Y
